Values were extracted from patent US9073895B2.

Quick reference: pIC50 of the listed items.
measurement target: recombinant human FLAP protein (Homo sapiens, UniProt P20292)
Sequence (P20292 1-161): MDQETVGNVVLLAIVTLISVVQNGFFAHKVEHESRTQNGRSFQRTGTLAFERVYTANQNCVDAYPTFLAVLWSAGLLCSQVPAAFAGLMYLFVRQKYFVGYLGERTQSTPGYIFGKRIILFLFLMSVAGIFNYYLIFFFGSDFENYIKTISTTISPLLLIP
procedure details: FLAP binding assay (SPA, displacement of [125I]L-691,831)
run parameters: membranes of sf9 cells expressing human FLAP, [125I]L-691,831 probe; read-out: hFLAP binding IC50
Value format note: pIC50 is -log10 of concentration (mol/L); just state the number.

Example entries begin here.
Nc1ncc(-c2ccc(C3(C(=O)Nc4cccc(-c5ccccc5)c4)CCOCC3)cc2)cn1 [Example 24]; 7.02
COc1ccc(-c2ccc(NC(=O)C3(c4ccc(-c5cnc(N)c(CO)c5)cc4)CCOCC3)nc2)cn1 [Example 170]; 8.01
Nc1ncc(-c2ccc(C3(C(=O)Nc4cc(-c5cccnc5)no4)CCOCC3)cc2)cn1 [Example 57]; 6.59

Could you now consider this next compound?
q: What measured pIC50 goes with Cn1ccc(NC(=O)C2(c3ccc(-c4cnc(N)nc4)cc3)CCC2)cc1=O [Example 216] ?
a: 7.04
